Molecular target: Tyrosine-protein kinase Fer (Homo sapiens);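 further: reported figures are averaged percent inhibition of FER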
Details: at 0.1 µM
Measured inhibition accompanies every entry in the list below.
measurement-type: inhibition (%)

- O=C(O[C@H]1CN[C@H](C#Cc2cc3ncnc(Nc4ccc(Cc5ccccc5)cc4)c3s2)C1)N1CCOCC1: -1.21
- CCn1c(-c2nonc2N)nc2c(C#CC(C)(C)O)ncc(OC3CCNCC3)c21: -0.68
- CN(C)CCOc1ccc(-c2nc(-c3ccncc3)c(-c3ccc4c(c3)CC/C4=N\O)[nH]2)cc1: 1.86
- CCn1c(-c2nonc2N)nc2cnc(Oc3cccc(NC(=O)c4ccc(N(C)C)cc4)c3)cc21: 1.16
- COC(=O)c1sc(-n2cnc3cc(OC)c(OC)cc32)cc1OCc1ccccc1C(F)(F)F: 1.07
- N#Cc1c(NC(=O)CN2CCOCC2)sc2c1CCCC2: 8.53
- c1ccc(COc2ccc(Nc3ncnc4ccc(-c5ccco5)cc34)cc2)cc1: 1.72
- COc1ccc(-c2oc3ncnc(N)c3c2-c2ccc(NC(=O)Nc3cc(C(F)(F)F)ccc3F)cc2)cc1: 8.1
- Clc1ccc(-c2nn3ncccc3c2-c2ccnc(Nc3ccccc3)n2)cc1: 1.86
- CCCN(CCS(C)(=O)=O)Cc1ccc(-c2ccc3ncnc(Nc4ccc(OCc5cccc(F)c5)c(Cl)c4)c3c2)o1: 2.14
- c1cc(-c2cnn3nc(N4CCOCC4)ccc23)nc(NC2CC2)n1: 0.53
- Fc1ccc(-c2nn3ccccc3c2-c2ccncc2)cc1: 1.5
- COc1ccc2c(-c3ccnc(Nc4cccc(OC(F)(F)F)c4)n3)cnn2n1: 4.88
